# assaySummary: yeast display, Sf9 membrane polyspecificity reagent, FACS + sequencing; frameworks hold sequencing errors

{"recordSequence": "QVQLVESGGGLVQAGGSLRLSCAASGSIFAWYAMGWYRQAPGKERELVADITQSGGSTYYADSVKGRFTISRDNAKNTVYLQMNSLKPEDTAVYYCVDYWYNYLQSGWEDDYWGQGTQVTVSS", "polyreactivity (PSR sort gate)": "low polyreactivity"}
{"recordSequence": "QVQLVESGGGLVQAGGSLRLSCAASGFTFYLYTMGWYRQAPGKERELVAAISWRGGGTYYADSVKGRFTISRDNAKNTVYLQMNSLKPEDTAVYYCATVRTYARNDYWGQGTQVTVSS", "polyreactivity (PSR sort gate)": "high polyreactivity"}
{"recordSequence": "QVQLVESGGGLVQAGGSLRLSCAASGIIFGSYAMGWYRQAPGKERELVAGISKIGGRTYYADSVKGRFTISRDNAKNTVYLQMNSLKPEDTAVYYCNKVRTRERTDYDYWGQGTQVTVSS", "polyreactivity (PSR sort gate)": "low polyreactivity"}
{"recordSequence": "QVQLVESGGGLVQAGGSLRLSCAASGSTFGRNAMGWYRQAPGKERELVAASNWSDGSTHYADSVKGRFTISRDNAKNTVYLQMNSLKPEDTAVYYCAADAWSWPVDYNYWGQGTQVTVSS", "polyreactivity (PSR sort gate)": "low polyreactivity"}
{"recordSequence": "QVQLVESGGGLVQAGGSLRLSCAASGSNFVIYAMGWYRQAPGKERELVAAIRFSTGSTYYADSVKVRFTNSRDYAKNTVYLQMNSLKPEDTAVYYCAAATWQWPWYDYWGQGTQVTVSS", "polyreactivity (PSR sort gate)": "high polyreactivity"}
{"recordSequence": "QVQLVESGGGLVQAGGSLRLSCAASGSIFVSYARGWYRQAPGKERELVAAITGRTGSTYYADSVKGRFTISRDNAKNTVYLQMNSLKAEDTGVYYCAARHKQHNRYDYWGQGTKVTVSS", "polyreactivity (PSR sort gate)": "low polyreactivity"}
{"recordSequence": "QVQLVESGGGLVQAGGSLRLSCAASGSIFFWNAMGWYRQAPGKERELVAAISWSAGITYYADSVKGRFTISRDNAKNTVYVQMNSLKPEDTAVYYCARDQGWYTVYYDSYDYWGQGTLVTVSS", "polyreactivity (PSR sort gate)": "low polyreactivity"}
{"recordSequence": "QVQLVESGGRLVQAGGSLRLRCAASGFIFLVNAMGWYRQARGKESELVAAITTSGASTYYADSVKGRFTISRDNAKNTVYLQMNSLKPEDTAVYYCAAGSYARPEYGYWGQGTQVTVSS", "polyreactivity (PSR sort gate)": "low polyreactivity"}
{"recordSequence": "QVQLVESGGGLVQAGGSLSLSCAASGRTLIRNAMGWYRQAPGKGRELVAAINSGGITNYADSVKGRFTISRDNAKNTVYLQMNSLKPEDTAVYYCNDRQVLYGLYLRAYPYEYWGQGTQVTVSS", "polyreactivity (PSR sort gate)": "low polyreactivity"}
{"recordSequence": "QVQLVESGGGLVQAGGSLRLSCAASGSIFPHNAMGWYRQAPGKERELVAAITTIGGSTYYADSVKGRFTISRDNAKNTVYLQRNSLKPEDTAVYYCAADCATVLGFYTYDYWGQGTQVTVSS", "polyreactivity (PSR sort gate)": "low polyreactivity"}
{"recordSequence": "QVQHVESGGGLVQAGGSLLLSCAASGSITVSYMGWYRQAPGKERELVAAISFSGASTYYADSVKGRFTISRDDAKNTVYLQMNSLKPEDTAVYYCAAEYVIYYWFEWLDLDYWGQGTQVTVSS", "polyreactivity (PSR sort gate)": "high polyreactivity"}
